I'd be grateful if you could share measured OD for these entries.
test target: T1, Chimeric protein #3 (mPro-mCat-hC-term-mmh) (mouse; human)
T1 chain: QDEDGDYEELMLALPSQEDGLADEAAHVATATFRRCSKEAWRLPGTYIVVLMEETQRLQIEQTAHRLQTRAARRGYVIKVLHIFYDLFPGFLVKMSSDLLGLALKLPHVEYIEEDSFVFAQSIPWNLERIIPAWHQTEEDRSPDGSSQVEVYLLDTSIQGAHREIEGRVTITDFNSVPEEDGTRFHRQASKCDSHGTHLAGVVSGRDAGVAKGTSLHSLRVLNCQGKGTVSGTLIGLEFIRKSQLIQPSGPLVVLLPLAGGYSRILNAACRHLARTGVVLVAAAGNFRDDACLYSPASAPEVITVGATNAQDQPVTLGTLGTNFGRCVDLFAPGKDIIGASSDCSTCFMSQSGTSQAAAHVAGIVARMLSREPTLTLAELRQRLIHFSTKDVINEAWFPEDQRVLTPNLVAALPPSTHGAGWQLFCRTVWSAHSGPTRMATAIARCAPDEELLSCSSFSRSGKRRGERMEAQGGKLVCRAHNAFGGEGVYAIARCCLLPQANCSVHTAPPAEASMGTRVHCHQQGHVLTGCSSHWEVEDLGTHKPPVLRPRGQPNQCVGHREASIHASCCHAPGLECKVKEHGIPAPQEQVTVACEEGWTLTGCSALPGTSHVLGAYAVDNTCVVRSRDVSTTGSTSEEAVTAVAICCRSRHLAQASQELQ
protocol notes: ELISA, mAb coated, 1.2 nM antigen;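 further: antigen allowed to bind for 1 h at room temperature, then captured protein revealed with an HRP-linked polyclonal anti-myc antibody and read as optical density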

Lookup: Can you share its OD? I mean this binder: H1M495 (antibody, V domains shown, Hybridoma-derived chimeric antibody (human variable, mouse constant)) VH: EVQLVESGGGLVQPGRSLRLSCAASGFTFDDYAMHWVRQAPGKGLEWVSGINWNSGSIGYADSVKGRFTISRDNAKHSLYLQMNSLRPEDTALYYCVKEVTTGYYYGMDVWGQGTTVTVSS VL: DIQLTQSPSFLSASVGDRVTITCWASQGISSYLAWYQKKPGKAPNLLIYDASTLQSGVPSRFSGSGSGTEFTLTLSSLQPEDFATYYCQQLNIYPFTFGPGTKVDIK
Found: > 1 od

Lookup: Can you share its OD? I mean this binder: H1H320P (antibody, V domains shown, Fully human antibody cloned from B cells, made in CHO cells) VH: QVQLVQSGAEVKKPGASVKVSCKASGYTFTNYGISWVRQAPGQGLELMGWISGYNGNTNYAQELQARVTMTTDTSTSTAYMELRNLRSDDTAVYYCARDRVVVAAANYYFYSMDVWGQGTTVTVSS VL: DVVMTQSPLSLSVTLGQPASISCRSSQSLVYSDGDTYLNWFQQRPGQSPRRLIYKVSNRDSGVPDRFSGSGSGTAFTLKISGVEAEDVGVYYCMQATHWPRTFGQGTKVEIK
Found: < 0.4 od

Lookup: Can you share its OD? I mean this binder: H1H318P (antibody, V domains shown, Fully human antibody cloned from B cells, made in CHO cells) VH: QVQLQESGPGLVKPSETLSLTCTVSGDSINTYYWSWFRQPPGKGLEWIGYIYYSGTTNYNPSLKSRVTISIDTPRNQFSLKLISVTAADTAVYYCARERITMIRGVTLYYYSYGMDVWGQGTTVTVSS VL: DIQMTQSPSFLSASVGDRVTITCWASQDISSYLAWYQQKPGIAPKLLIYAASTLQSGVPSRFGGSGSGTEFTLTISSLQPEDFATYYCQQLNSYPRTFGQGTKVEIK
Found: < 0.4 od

Lookup: Can you share its OD? I mean this binder: H1M498 (antibody, V domains shown, Hybridoma-derived chimeric antibody (human variable, mouse constant)) VH: EVQLVESGGGLVKPGGSLRLSCAASGFTFSSYSMDWVRQAPGKGLEWVSSISSSSSYIYYADSVKGRFTISRDTAKNSLYLQMNSLRDEDTAVYYCAREGSSRLFDYWGQGTLVTVSS VL: DIQMTQSPSTLSASVGDRVTITCRASQSISSWLAWYQQRPGKAPKLLIYKASSLEGGVPSRFSGSGSGTEFTLTISSLQPEDFATYYCQQYNSYWYTFGQGTKLEIK
Found: 0.4 to 1 od

Values from patent US20130064834A1
